biological target: SIRT1 (Homo sapiens); assay: Mass spectrometry based SIRT1 deacetylation (activation) assay; assay type: biochemical; conditions: 25 min, 0.5 μM peptide substrate, 120 μM βNAD+, 10 nM SIRT1, 25 min at 25° C., read-out: % Fold Act. (percent maximum fold activation)
Metric: Emax

Below are worked cases with known answers.
- Compound: "CN(C)CCNc1cc(C(=O)Nc2ccccc2-c2nnc(-c3ccccc3)s2)nc(-c2ccccc2)c1 [Compound 33]"
  Emax: "≥ 300%"
- Compound: "CCN(CCN(C)C)c1cc(C(=O)Nc2ccccc2-c2nnc(NC(=O)N3CCOCC3)s2)nc(-c2ccccc2)n1 [Compound 113]"
  Emax: "≥ 300%"
- Compound: "CCN(CCN(C)C)c1cc(C(=O)Nc2ccccc2-c2ncc(C(C)(C)C)o2)nc(-c2ccccc2)n1 [Compound 65]"
  Emax: "150 to 300%"
- Compound: "CCN(CCN(C)C)c1cc(C(=O)Nc2ccccc2-c2nnc(-c3ccccc3)s2)nc(-c2ccccc2)n1 [Compound 36]"
  Emax: "150 to 300%"
- Compound: "CN(C)CCNc1cc(C(=O)Nc2ccccc2-c2ncc(-c3ccccc3)o2)nc(-c2ccccc2)n1 [Compound 38]"
  Emax: "150 to 300%"
- Compound: "CCN(CCN(C)C)c1cc(C(=O)Nc2ccccc2C(=O)NC2CCCCC2)nc(-c2ccccc2)n1 [Compound 165]"
  Emax: "150 to 300%"
- Compound: "CCOC(=O)c1nnc(-c2ccccc2NC(=O)c2cc(N(CC)CCN(C)C)nc(-c3ccccc3)n2)s1 [Compound 59]"
  Emax: "150 to 300%"
- Compound: "O=C(Nc1ccccc1-c1nnc(C(=O)N2CCOCC2)s1)c1cc(OC[C@@H](O)CO)nc(-c2ccccc2)n1 [Compound 91]"
  Emax: "150 to 300%"
- Compound: "CCN(CCN(C)C)c1cc(C(=O)Nc2ccccc2-c2nnc(C(=O)NC)s2)nc(-c2ccccc2)n1 [Compound 86]"
  Emax: "150 to 300%"
- Compound: "C/C(=N\\O)c1ccccc1NC(=O)c1cc(NCCN(C)C)nc(-c2ccccc2)n1 [Compound 132]"
  Emax: "150 to 300%"

Query string: Need Emax, item CN(C)CCNc1cc(C(=O)Nc2ccccc2-c2ncc(-c3ccccc3)o2)nc(-c2ccccc2)c1 [Compound 30]
Result string: ≥ 300%

Query string: Need Emax, item CN(C)CCNC(=O)c1nnc(-c2ccccc2NC(=O)c2cc(NCCN(C)C)nc(-c3ccccc3)n2)s1 [Compound 58]
Result string: ≥ 300%

Query string: Need Emax, item CNCCN(C)c1cc(C(=O)Nc2ccccc2-c2nnc(-c3ccccc3)s2)nc(-c2ccccc2)c1 [Compound 44]
Result string: ≥ 300%

Query string: Need Emax, item CN(C)CCNc1cc(C(=O)Nc2ccccc2-c2nnc(-c3cccnc3)s2)nc(-c2ccccc2)n1 [Compound 77]
Result string: ≥ 300%

Query string: Need Emax, item COCCNC(=O)c1ccccc1NC(=O)c1cc(NCCN(C)C)nc(-c2ccccc2)n1 [Compound 122]
Result string: ≥ 300%

====

molecular target: SIRT1 (Homo sapiens, UniProt Q96EB6); experiment: Mass spectrometry based SIRT1 deacetylation (activation) assay; format: biochemical; details: 0.5 μM peptide substrate, 120 μM βNAD+, 10 nM SIRT1, 25 min at 25° C.
Sequence (Q96EB6 whole entry): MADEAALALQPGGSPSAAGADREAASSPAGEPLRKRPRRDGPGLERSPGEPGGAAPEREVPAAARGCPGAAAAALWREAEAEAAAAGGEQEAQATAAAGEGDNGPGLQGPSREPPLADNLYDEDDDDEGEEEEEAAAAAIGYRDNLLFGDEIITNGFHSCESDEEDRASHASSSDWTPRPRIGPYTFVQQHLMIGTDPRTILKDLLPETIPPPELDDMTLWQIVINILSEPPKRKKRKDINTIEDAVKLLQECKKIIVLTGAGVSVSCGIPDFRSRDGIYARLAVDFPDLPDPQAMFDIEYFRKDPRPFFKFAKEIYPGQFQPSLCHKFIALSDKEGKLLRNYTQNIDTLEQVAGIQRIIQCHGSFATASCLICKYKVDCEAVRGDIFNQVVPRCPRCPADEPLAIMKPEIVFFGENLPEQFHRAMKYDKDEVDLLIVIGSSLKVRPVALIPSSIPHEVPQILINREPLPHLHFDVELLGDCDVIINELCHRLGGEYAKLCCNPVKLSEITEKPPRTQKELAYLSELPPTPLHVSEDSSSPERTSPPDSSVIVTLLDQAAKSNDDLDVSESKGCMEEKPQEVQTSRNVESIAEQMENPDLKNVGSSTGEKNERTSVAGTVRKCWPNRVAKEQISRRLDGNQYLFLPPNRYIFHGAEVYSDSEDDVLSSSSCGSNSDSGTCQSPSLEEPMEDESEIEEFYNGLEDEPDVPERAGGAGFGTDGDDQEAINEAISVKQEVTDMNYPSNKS
Metric: EC1.5

Below are worked cases with known answers.
- Structure smiles: "CCN(CCN(C)C)c1cc(C(=O)Nc2ccccc2-c2nnc(C3CCC3)s2)nc(-c2ccccc2)n1"
  EC1.5: "A (EC1.5≦1 uM)"
- Structure smiles: "CNCCN(C)c1cc(C(=O)Nc2ccccc2-c2nnc(-c3ccccc3)s2)nc(-c2ccccc2)n1"
  EC1.5: "A (EC1.5≦1 uM)"
- Structure smiles: "CN(C)CCNc1cc(C(=O)Nc2ccccc2-c2csc(-c3ccccc3)n2)nc(-c2ccccc2)n1"
  EC1.5: "B (EC1.5>1 and ≦10 uM)"
- Structure smiles: "CCN(CCOC)c1cc(C(=O)Nc2ccccc2-c2ncc(C(C)(C)C)o2)nc(-c2ccccc2)c1"
  EC1.5: "A (EC1.5≦1 uM)"
- Structure smiles: "CN(C)CCNc1cc(C(=O)Nc2ccccc2-c2nnc(C3CCCC3)s2)nc(-c2ccccc2)n1"
  EC1.5: "B (EC1.5>1 and ≦10 uM)"
- Structure smiles: "CN(C)CCNc1cc(C(=O)Nc2ccccc2-c2ncc(-c3ccccc3)o2)nc(-c2ccccc2)c1"
  EC1.5: "A (EC1.5≦1 uM)"

Attention now turns to another entry.
Query string: Need EC1.5, item CCN(CCN(C)C)c1cc(C(=O)Nc2ccccc2-c2nnc(CC(C)C)s2)nc(-c2ccccc2)n1
Result string: B (EC1.5>1 and ≦10 uM)
